Cited source for all entries: patent US7759345B2

Tested on: HMEC1
Assay procedure: Inhibition of cells growth by colorimetric assay (SRB), HMEC1
Assay type: cell-based
Condition set: Homo sapiens, HMEC-1, 48 h, read-out: HMEC-1 LC50, SRB assay, 48 hours exposure
Kindly supply the reported LC50 values for the records listed here.
Numbers only, in µM.

Consider the worked cases shown below.
C=COC(=O)Oc1c(C)c2c(c3c1[C@H]1SC[C@]4(NCCc5cc(OC(=O)OC(C)(C)C)c(OC)cc54)C(=O)OC[C@@H]3N3C1[C@H]1c4c(cc(C)c(OC)c4O)C[C@@H]([C@@H]3O)N1C)OCO2 (stereo partly drawn) [Compound 176]: 11.2
COc1cc2c(cc1O)CCN[C@]21CS[C@@H]2c3c(O)c(C)c4c(c3[C@H](COC1=O)N1C2[C@H]2c3c(cc(C)c(OC)c3O)C[C@@H]([C@@H]1O)N2C)OCO4 (stereo partly drawn) [Et-701]: 4.57
COc1cc2c(cc1O)CCN[C@]21CS[C@@H]2c3c(OC(=O)CCCCC4SCC5NC(=O)NC54)c(C)c4c(c3[C@H](COC1=O)N1C2[C@H]2c3c(cc(C)c(OC)c3OC(=O)CCCCC3SCC5NC(=O)NC53)C[C@@H]([C@@H]1O)N2C)OCO4 (stereo partly drawn) [Compound 172]: 8.53
COc1cc2c(cc1OC(=O)OC(C)(C)C)CCN[C@]21CS[C@@H]2c3c(OC(=O)[C@H](C)NC(=O)OC(C)(C)C)c(C)c4c(c3[C@H](COC1=O)N1C2[C@H]2c3c(cc(C)c(OC)c3O)C[C@@H]([C@@H]1O)N2C)OCO4 (stereo partly drawn) [Compound 175]: 10.1
COc1cc2c(cc1O)CCN[C@]21CS[C@@H]2c3c(OC(=O)CCCCC4SCC5NC(=O)NC54)c(C)c4c(c3[C@H](COC1=O)N1C2[C@H]2c3c(cc(C)c(OC)c3O)C[C@@H]([C@@H]1O)N2C)OCO4 (stereo partly drawn) [Compound 171]: 10.6

(Q) // fetch HMEC1 LC50 for COc1cc2c(cc1O)CCN[C@]21CS[C@@H]2c3c(OC(=O)C(F)(F)C(F)(F)C(F)(F)F)c(C)c4c(c3[C@H](COC1=O)N1C2[C@H]2c3c(cc(C)c(OC)c3O)C[C@@H]([C@@H]1O)N2C)OCO4 (stereo partly drawn) [Compound 167]
(A) 10.9

* * *

Test system: A-549
Assay procedure: Inhibition of cells growth by colorimetric assay (SRB), A-549
Type: cell-based
Condition set: read-out: A-549 LC50; A-549; SRB, 48 hours exposure
Description: 2°.—Inhibition of Cells Growth by Colorimetric Assay. A colorimetric type of assay, using sulforhodamine B (SRB) reaction has been adapted for a quantitative measurement of cell growth and viability [following the technique described by Philip Skehan, et al. (1990), New colorimetric cytotoxicity assay for anticancer drug screening, J. Natl. Cancer Inst., 82:1107-1112] […] The values for mean+/−SD of data from triplicate wells are calculated. […]
Kindly supply the reported LC50 (concentration for 50% cell killing) values for the records listed here.
Give bare numbers, in nM.

COc1cc2c(cc1OC(=O)Cc1cc(=O)oc3cc(N(C)C)ccc13)CCN[C@]21CS[C@@H]2c3c(OC(C)=O)c(C)c4c(c3[C@H](COC1=O)N1C2[C@H]2c3c(cc(C)c(OC)c3OC(=O)Cc3cc(=O)oc5cc(N(C)C)ccc35)C[C@@H]([C@@H]1O)N2C)OCO4 (some centres unmarked) [Compound 78]: 41.1

Turning now to a further record.
(Q) Fill blank: measured LC50 (concentration for 50% cell killing) of the compound COc1cc2c(cc1OC(=O)Cc1cc(=O)oc3cc(N(C)C)ccc13)CCN[C@]21CS[C@@H]2c3c(OC(C)=O)c(C)c4c(c3[C@H](COC1=O)N1C2[C@H]2c3c(cc(C)c(OC)c3OC(=O)Cc3cc(=O)oc5cc(N(C)C)ccc35)C[C@@H]([C@@H]1O)N2C)OCO4 (some centres unmarked) [Compound 77] is ____.
(A) 6.29

* * *

Kindly supply the reported IC50 values for the records listed here.
Test system: MEL-28
Assay procedure: Inhibition of cell growth by counting cells, MEL-28
Type: cell-based, human
Condition set: Homo sapiens, SK-MEL-28, 72 h; three days of incubation; read-out: IC50 (molar) MEL-28
One number for each entry, in nM.

C=CCOc1c(OC)c(C)cc2c1[C@H]1N[C@@H](C2)[C@H](C#N)N2C1[C@@H]1SC[C@]3(NCCc4cc(O)c(OC)cc43)C(=O)OC[C@H]2c2c3c(c(C)c(OC(C)=O)c21)OCO3 (stereo partly drawn) [Compound 201]: 15.7
C=CCOc1cc2c(cc1OC)[C@@]1(CS[C@@H]3c4c(OC(C)=O)c(C)c5c(c4[C@H](COC1=O)N1C3[C@H]3c4c(cc(C)c(OC)c4OCC=C)C[C@@H]([C@@H]1O)N3C)OCO5)NCC2 (stereo partly drawn) [Compound 90]: 11.9
CCCOc1cc2c(cc1OC)[C@@]1(CS[C@@H]3c4c(OC(C)=O)c(C)c5c(c4[C@H](COC1=O)N1C3[C@H]3c4c(cc(C)c(OC)c4O)C[C@@H]([C@@H]1O)N3C)OCO5)NCC2 (stereo partly drawn) [Compound 69]: 0.623

Take each entry in turn and give its IC50.
1. CCOc1cc2c(cc1OC)[C@@]1(CS[C@@H]3c4c(OC(C)=O)c(C)c5c(c4[C@H](COC1=O)N1C3[C@H]3c4c(cc(C)c(OC)c4OCC)C[C@@H]([C@@H]1O)N3C)OCO5)NCC2 (stereo partly drawn) [Compound 88]
2. CCCCCCCC(=O)Oc1cc2c(cc1OC)[C@@]1(CS[C@@H]3c4c(OC(C)=O)c(C)c5c(c4[C@H](COC1=O)N1C3[C@H]3c4c(cc(C)c(OC)c4O)C[C@@H]([C@@H]1O)N3C)OCO5)NCC2 (stereo partly drawn) [Compound 59]

(A)
12.2
0.113

Take each entry in turn and give its IC50.
1. COc1cc2c(cc1OC(C)=O)CCN[C@]21CS[C@@H]2c3c(OC(C)=O)c(C)c4c(c3[C@H](COC1=O)N1C2[C@H]2c3c(cc(C)c(OC)c3O)C[C@@H]([C@@H]1C#N)N2C)OCO4 (stereo partly drawn) [Compound 2]
2. COc1cc2c(cc1O)CCN[C@]21CS[C@@H]2c3c(OC(C)=O)c(C)c4c(c3[C@H](COC1=O)N1C2[C@@H]2N[C@@H](Cc3cc(C)c(OC)c(O)c32)[C@@H]1C#N)OCO4 (stereo partly drawn) [Compound 186]

(A)
1. 0.148
2. 0.159

Take each entry in turn and give its IC50.
1. COc1cc2c(cc1OC(=O)/C=C/c1ccccc1)CCN[C@]21CS[C@@H]2c3c(OC(C)=O)c(C)c4c(c3[C@H](COC1=O)N1C2[C@H]2c3c(cc(C)c(OC)c3O)C[C@@H]([C@@H]1C#N)N2C(=O)OC(C)(C)C)OCO4 (stereo partly drawn) [Compound 194]
2. CCN1CCc2cc(O)c(OC)cc2[C@@]12CS[C@@H]1c3c(OC(C)=O)c(C)c4c(c3[C@H](COC2=O)N2C1[C@H]1c3c(cc(C)c(OC)c3O)C[C@@H]([C@@H]2O)N1C)OCO4 (stereo partly drawn) [Compound 94]

(A)
1: 50.7; 2: 0.152

* * *

System: LNCaP
Assay procedure: Inhibition of cells growth by colorimetric assay (SRB), LNCaP
Format: cell-based
Condition set: read-out: LNCAP LC50; LNCAP; SRB, 48 hours exposure
Assay endpoint: CC50 (nM)
Answers are plain numbers, in nM.

COc1cc2c(cc1OC(=O)Cc1cc(=O)oc3cc(N(C)C)ccc13)CCN[C@]21CS[C@@H]2c3c(OC(C)=O)c(C)c4c(c3[C@H](COC1=O)N1C2[C@H]2c3c(cc(C)c(OC)c3OC(=O)Cc3cc(=O)oc5cc(N(C)C)ccc35)C[C@@H]([C@@H]1O)N2C)OCO4 (some centres unmarked) [Compound 77]: 1.58

Turning now to a further record.
(Q) Fill blank: measured CC50 of the molecule COc1cc2c(cc1OC(=O)Cc1cc(=O)oc3cc(N(C)C)ccc13)CCN[C@]21CS[C@@H]2c3c(OC(C)=O)c(C)c4c(c3[C@H](COC1=O)N1C2[C@H]2c3c(cc(C)c(OC)c3OC(=O)Cc3cc(=O)oc5cc(N(C)C)ccc35)C[C@@H]([C@@H]1O)N2C)OCO4 (some centres unmarked) [Compound 78] is ____.
(A) 5.99

* * *

Kindly supply the reported IGROV-ET TGI values for the records listed here.
Test system: IGROV-ET
Assay procedure: Inhibition of cells growth by colorimetric assay (SRB), IGROV-ET
Assay type: cell-based
Condition set: IGROV-ET; SRB, 48 hours exposure
Numbers only.

C=COC(=O)N1CCc2cc(O)c(OC)cc2[C@@]12CS[C@@H]1c3c(OC(C)=O)c(C)c4c(c3[C@H](COC2=O)N2C1[C@H]1c3c(cc(C)c(OC)c3O)C[C@@H]([C@@H]2O)N1C)OCO4 (some centres unmarked) [Compound 95]: 1.16E-07
COc1cc2c(cc1OC(=O)Cc1cc(=O)oc3cc(N(C)C)ccc13)CCN[C@]21CS[C@@H]2c3c(OC(C)=O)c(C)c4c(c3[C@H](COC1=O)N1C2[C@H]2c3c(cc(C)c(OC)c3OC(=O)Cc3cc(=O)oc5cc(N(C)C)ccc35)C[C@@H]([C@@H]1O)N2C)OCO4 (some centres unmarked) [Compound 77]: 9.57E-08
COc1cc2c(cc1O)CCN(C)[C@]21CS[C@@H]2c3c(OC(C)=O)c(C)c4c(c3[C@H](COC1=O)N1C2[C@H]2c3c(cc(C)c(OC)c3O)C[C@@H]([C@@H]1O)N2C)OCO4 (some centres unmarked) [Compound 93]: 1.31E-07
COc1cc2c(cc1OC)[C@@]1(CS[C@@H]3c4c(OC(C)=O)c(C)c5c(c4[C@H](COC1=O)N1C3[C@H]3c4c(cc(C)c(OC)c4OC)C[C@@H]([C@@H]1O)N3C)OCO5)NCC2 (some centres unmarked) [Compound 87]: 7.77E-08
C=COC(=O)Oc1cc2c(cc1OC)[C@@]1(CS[C@@H]3c4c(OC(C)=O)c(C)c5c(c4[C@H](COC1=O)N1C3[C@H]3c4c(cc(C)c(OC)c4O)C[C@@H]([C@@H]1O)N3C)OCO5)N(C(=O)OC=C)CC2 (some centres unmarked) [Compound 100]: 7.41E-07

Take each entry in turn and give its IGROV-ET TGI.
1. COc1cc2c(cc1OC(=O)Cc1cc(=O)oc3cc(N(C)C)ccc13)CCN[C@]21CS[C@@H]2c3c(OC(C)=O)c(C)c4c(c3[C@H](COC1=O)N1C2[C@H]2c3c(cc(C)c(OC)c3OC(=O)Cc3cc(=O)oc5cc(N(C)C)ccc35)C[C@@H]([C@@H]1O)N2C)OCO4 (some centres unmarked) [Compound 78]
2. COC1=C(C)C(=O)C2=C(C1=O)[C@@H]1C3[C@@H]4SC[C@]5(NCCc6cc(O)c(OC)cc65)C(=O)OC[C@@H](c5c6c(c(C)c(OC(C)=O)c54)OCO6)N3[C@@H](O)[C@H](C2)N1C (some centres unmarked) [Compound 101]
3. COc1cc2c(cc1O)CCN[C@]21CS[C@@H]2c3c(OC(C)=O)c(C)c4c(c3[C@H](COC1=O)N1C2[C@H]2c3c(cc(C)c(OC)c3OC(C)C)C[C@@H]([C@@H]1O)N2C)OCO4 (some centres unmarked) [Compound 102]

(A)
["7.42E-07", "6.88E-08", "1.53E-06"]
